Tested on: L1210 leukemia ip in BDF1 mice, survival T/C
assay explanation: NCI In Vivo Anticancer Drug Screen. Data for tumor model L1210 Leukemia (intraperitoneal) in B6D2F1 (BDF1) mice
condition label: endpoint: mean survival time; dose: 400.0 mg/kg/injection; schedule: Q01DX009 (ip); vehicle: saline with Tween-80; higher = longer survival
Inconclusive results and toxic doses are left out.
Measured T/C of individual entries

INSERT INTO assay_data (compound, attribute_measured, result) VALUES
  ('COc1ccc(Cl)cc1NC(=O)Oc1c(C)cccc1C', 'T/C', '102 % of control'),
  ('O=C(CCC(=O)c1cccc([N+](=O)[O-])c1)NNc1ccc([N+](=O)[O-])cc1[N+](=O)[O-]', 'T/C', '92 % of control'),
  ('CC(C)(C)c1ccc(C(c2ccc(C(C)(C)C)cc2)C(Cl)(Cl)Cl)cc1', 'T/C', '92 % of control'),
  ('CCCCCCCCCCCCCCCCCc1nc2nc(Cl)c(Cl)nc2[nH]1', 'T/C', '93 % of control'),
  ('O=C1OCc2cc3ccccc3nc21', 'T/C', '92 % of control'),
  ('OC(C1CCCCC1)(C1CCCCC1)C1CCCCC1', 'T/C', '96 % of control'),
  ('O=c1cc(C(O)c2ccccc2)c2cccc3c2n1CCC3 (stereo not drawn)', 'T/C', '101 % of control');

`C/C=C/C(=O)Nc1cccc(OC(=O)NC(C)(C)C)c1` has a reported T/C of 86 % of control

###

Quick reference for T/C among some compounds
System: L1210 leukemia ip in BDF1 mice, survival T/C
assay explanation: NCI In Vivo Anticancer Drug Screen. Data for tumor model L1210 Leukemia (intraperitoneal) in B6D2F1 (BDF1) mice
condition label: endpoint: mean survival time; dose: 400.0 mg/kg/injection; schedule: Q01DX001 (ip); vehicle: Klucel (hydroxypropylcellulose) (HPC); higher = longer survival
Method: The antitumor activity of compounds was measured in mice bearing transplantable tumors. Survival or tumor size were measured and the results are expressed as the measurement made in the treated group (T) divided by the measurement made in the vehicle treated control group (C). The tumor model used in this assay is L1210 Leukemia (intraperitoneal) in B6D2F1 (BDF1) mice
Inconclusive results and toxic doses are left out.

INSERT INTO results (compound, result) VALUES
  ('O=C(c1ccccc1)C(C(NC1CCCCC1)c1ccccc1)N1CCCCC1 (centres undefined)', '92 % of control'),
  ('O=C1NC2(CCCCCC2)C(=O)N1CN1CCOCC1', '104 % of control'),
  ('Nc1nccc2snnc12', '97 % of control');

Below: the item to evaluate.
Consider `C/C(C(=O)O)=C1\N=C(N)NC1=O` . Its measured T/C is 102 % of control

###

Tested on: L1210 leukemia ip in BDF1 mice, survival T/C
assay explanation: NCI In Vivo Anticancer Drug Screen. Data for tumor model L1210 Leukemia (intraperitoneal) in B6D2F1 (BDF1) mice
condition label: endpoint: mean survival time; dose: 100.0 mg/kg/injection; schedule: Q01DX009 (ip); vehicle: saline; higher = longer survival
Inconclusive results and toxic doses are left out.
Each record here notes measured T/C.

Solved entries (count: 6):
INSERT INTO assay_data (molecule, result) VALUES
  ('Cc1cccc(C(=O)O)n1', '103 % of control'),
  ('CN(C)/N=C/C=C/c1ccccc1', '105 % of control'),
  ('OC1COCOC1 (tested in a mixture with another compound)', '104 % of control'),
  ('COc1cc(Cl)c(CC(=O)c2c[nH]c3ccccc23)cc1OC', '95 % of control'),
  ('COc1cc2c(cc1OC)C(CN)C2 (configuration not stated)', '103 % of control'),
  ('O=C1C(n2ccc(=O)[nH]c2=O)CCN1CCO (configuration not stated)', '105 % of control');

Next, consider the following molecule.
T/C measured on `NCCSS(=O)(=O)CCN` = 105 % of control

###

Tested on: L1210 leukemia ip in BDF1 mice, survival T/C
assay explanation: NCI In Vivo Anticancer Drug Screen. Data for tumor model L1210 Leukemia (intraperitoneal) in B6D2F1 (BDF1) mice
condition label: endpoint: mean survival time; dose: 200.0 mg/kg/injection; schedule: Q01DX001 (ip); vehicle: saline; higher = longer survival
Toxic doses and inconclusive results are not listed.
attribute measured: T/C

Here's what some known entries look like.
INSERT INTO measurements (compound, system_under_test, attribute_measured, result) VALUES
  ('CCOC(=O)/C(C)=N\N=C(/CCOC)COC', 'L1210 leukemia ip in BDF1 mice, survival T/C', 'T/C', '101 % of control'),
  ('N=C(N)c1ccc(N=NNc2ccc(C(=N)N)cc2)cc1 (tested in a mixture with another compound)', 'L1210 leukemia ip in BDF1 mice, survival T/C', 'T/C', '98 % of control'),
  ('O=C(Nc1ccccc1)OC1C=CC2CCC1C2 (stereo not given)', 'L1210 leukemia ip in BDF1 mice, survival T/C', 'T/C', '87 % of control'),
  ('Nc1nc2ncnc(N)c2nc1-c1ccc(N(CCCl)CCCl)cc1', 'L1210 leukemia ip in BDF1 mice, survival T/C', 'T/C', '95 % of control'),
  ('O=C(O)c1cc(O)c2c(c1)C(C1c3cc(C(=O)O)cc(O)c3C(=O)c3c(OC4OC(CO)C(O)C(O)C4O)cccc31)c1cccc(OC3OC(CO)C(O)C(O)C3O)c1C2=O (stereo not given)', 'L1210 leukemia ip in BDF1 mice, survival T/C', 'T/C', '97 % of control'),
  ('CCCCNC(=O)NNC(=O)CCCC(=O)NNC(=O)NCCCC', 'L1210 leukemia ip in BDF1 mice, survival T/C', 'T/C', '100 % of control'),
  ('CC(=O)OC1CCCCC1C (stereo not given)', 'L1210 leukemia ip in BDF1 mice, survival T/C', 'T/C', '94 % of control'),
  ('Cc1c(C(C)(C)c2ccccc2)[nH]c2ccc(C(C)(C)c3ccccc3)cc12', 'L1210 leukemia ip in BDF1 mice, survival T/C', 'T/C', '86 % of control');

Looking up CC(=O)Nc1nc(Cl)c2ncn(C3OC(COC(=O)c4ccccc4)CC3OC(=O)c3ccccc3)c2n1 (stereo not given) , I see its T/C listed as 101 % of control

Item: `CCC(CC)(COC(C)=O)C[N+](C)(C)C` | T/C: 95 % of control

Documented T/C of CCOC(=O)CCN(C(=O)OCC)C(COCc1ccccc1)C(=O)OCC (stereo not given) : 104 % of control

N#CC(c1ccc(N)cc1)c1ccc(F)cc1 (stereo not given) yielded T/C of 97 % of control

Kindly note the recorded T/C for CCOC1(O)C(=O)c2ccccc2OC1(OCC)c1ccccc1 (stereo not given) , which is 96 % of control

According to the records, this compound `O=N/C=C/C(=N/Nc1ccc(C(=O)O)cc1)[N+](=O)[O-]` displays T/C of 93 % of control

GET /value?item= O=C1OC(C(O)CO)C(O)=C1O (stereo not given) &field=T/C returns 104 % of control

Sample `Cc1cc(N(C)C)cc(C)c1C(=Nc1ccc(N=C(NO)c2c(C)cc(N(C)C)cc2C)cc1)NO` ; T/C observed: 109 % of control

// T/C value for COC(=O)C1OC1c1cc(Cl)ccc1OC (stereo not given) : 94 % of control

Value of T/C reported for the compound CCOC(=O)N1CCN2C(=O)N(CC)CCC2C1 (stereo not given) is 93 % of control

Entry `CC(C)CC(C)(CC(C)C)C(=O)O` ; T/C = 100 % of control

Documented T/C of C=C(CC(N)=O)C(=O)O (tested in a mixture with another compound) : 107 % of control

`COC(=O)C[N+]12CN3CN(CN(C3)C1)C2` yielded T/C of 96 % of control

###

Tested on: L1210 leukemia ip in BDF1 mice, survival T/C
assay explanation: NCI In Vivo Anticancer Drug Screen. Data for tumor model L1210 Leukemia (intraperitoneal) in B6D2F1 (BDF1) mice
condition label: endpoint: mean survival time; dose: 200.0 mg/kg/injection; schedule: Q01DX009 (ip); vehicle: saline with Tween-80; higher = longer survival
Inconclusive results and toxic doses are left out.
attribute measured: T/C

INSERT INTO measurements (compound, result) VALUES
  ('COC1(OC)C(Cl)=C(Cl)C2C1C1(Cl)C(Cl)=C(Cl)C2(Cl)C1(OC)OC (stereo unspecified)', '98 % of control');

Alright, here's another compound for you.
`COc1ccc(OC)c(NC(=O)Nc2cc(OC)ccc2OC)c1` yielded T/C of 97 % of control

###

Tested on: L1210 leukemia ip in BDF1 mice, survival T/C
assay explanation: NCI In Vivo Anticancer Drug Screen. Data for tumor model L1210 Leukemia (intraperitoneal) in B6D2F1 (BDF1) mice
condition label: endpoint: mean survival time; dose: 100.0 mg/kg/injection; schedule: Q01DX001 (ip); vehicle: carboxymethylcellulose (CMC); higher = longer survival
Inconclusive results and toxic doses are left out.
Readings of T/C for the listed compounds

These solved cases illustrate the format of a correct answer.
INSERT INTO results (compound, attribute_measured, result) VALUES
  ('CCSC(SCC)C(SCC)C(O)C(O)C(O)CO (stereo unspecified)', 'T/C', '106 % of control'),
  ('COC(=O)C1=C(\N2CCOCC2)CCCC/C=C\1C(=O)OC', 'T/C', '108 % of control');

Query compound follows.
Form field T/C, entry `NC(=O)C1(Nc2ccc(-c3ccc(Br)cc3)cc2)CCCC1` : 86 % of control
